# target.system: hFSP1 WT (Homo sapiens, UniProt Q9BRQ8)
# Construct: HisSUMO (cleaved yes)
# Sequence (Q9BRQ8 whole entry): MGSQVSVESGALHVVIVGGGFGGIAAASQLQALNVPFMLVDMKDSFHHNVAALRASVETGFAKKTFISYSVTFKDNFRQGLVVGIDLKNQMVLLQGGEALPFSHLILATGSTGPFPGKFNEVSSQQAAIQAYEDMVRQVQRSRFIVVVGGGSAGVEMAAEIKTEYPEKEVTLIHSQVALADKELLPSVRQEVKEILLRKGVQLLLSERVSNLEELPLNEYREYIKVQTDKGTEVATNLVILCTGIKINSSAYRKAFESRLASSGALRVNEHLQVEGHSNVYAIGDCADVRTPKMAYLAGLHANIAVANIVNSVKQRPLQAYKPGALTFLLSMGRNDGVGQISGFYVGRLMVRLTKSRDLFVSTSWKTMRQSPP
# assay.comment: Competition MST against pre-formed complex of hFSP1 WT and FSP1-Tracer
# study.conditions: hFSP1 WT 5 µM and FSP1-Tracer 5 nM pre-formed complex
pKi reference
// pKi is dimensionless: -log10 of concentration (M)

molecule	measurement
Cc1ccc(-c2c(C#N)c(N)n3c(nc4ccccc43)c2C#N)cc1 [iFSP1]	7.21

Note: attention shifts to another entry.
Task: Fill in the blank: the reported pKi of NC(=O)C1=CN(C2OC(COP(=O)(O)OP(=O)(O)OCC3OC(n4cnc5c(N)ncnc54)C(O)C3O)C(O)C2O)C=CC1 (centres unmarked) [NADH] is ____.
Result: 6.34

Data origin, for the record: paper PMC10119282
